Ref: patent US10793563B2

Target: intracellular GCN2 (phosphorylation of the GCN2 substrate eIF2α) (Homo sapiens (Human), UniProt Q9P2K8)
Sequence (Q9P2K8 whole entry): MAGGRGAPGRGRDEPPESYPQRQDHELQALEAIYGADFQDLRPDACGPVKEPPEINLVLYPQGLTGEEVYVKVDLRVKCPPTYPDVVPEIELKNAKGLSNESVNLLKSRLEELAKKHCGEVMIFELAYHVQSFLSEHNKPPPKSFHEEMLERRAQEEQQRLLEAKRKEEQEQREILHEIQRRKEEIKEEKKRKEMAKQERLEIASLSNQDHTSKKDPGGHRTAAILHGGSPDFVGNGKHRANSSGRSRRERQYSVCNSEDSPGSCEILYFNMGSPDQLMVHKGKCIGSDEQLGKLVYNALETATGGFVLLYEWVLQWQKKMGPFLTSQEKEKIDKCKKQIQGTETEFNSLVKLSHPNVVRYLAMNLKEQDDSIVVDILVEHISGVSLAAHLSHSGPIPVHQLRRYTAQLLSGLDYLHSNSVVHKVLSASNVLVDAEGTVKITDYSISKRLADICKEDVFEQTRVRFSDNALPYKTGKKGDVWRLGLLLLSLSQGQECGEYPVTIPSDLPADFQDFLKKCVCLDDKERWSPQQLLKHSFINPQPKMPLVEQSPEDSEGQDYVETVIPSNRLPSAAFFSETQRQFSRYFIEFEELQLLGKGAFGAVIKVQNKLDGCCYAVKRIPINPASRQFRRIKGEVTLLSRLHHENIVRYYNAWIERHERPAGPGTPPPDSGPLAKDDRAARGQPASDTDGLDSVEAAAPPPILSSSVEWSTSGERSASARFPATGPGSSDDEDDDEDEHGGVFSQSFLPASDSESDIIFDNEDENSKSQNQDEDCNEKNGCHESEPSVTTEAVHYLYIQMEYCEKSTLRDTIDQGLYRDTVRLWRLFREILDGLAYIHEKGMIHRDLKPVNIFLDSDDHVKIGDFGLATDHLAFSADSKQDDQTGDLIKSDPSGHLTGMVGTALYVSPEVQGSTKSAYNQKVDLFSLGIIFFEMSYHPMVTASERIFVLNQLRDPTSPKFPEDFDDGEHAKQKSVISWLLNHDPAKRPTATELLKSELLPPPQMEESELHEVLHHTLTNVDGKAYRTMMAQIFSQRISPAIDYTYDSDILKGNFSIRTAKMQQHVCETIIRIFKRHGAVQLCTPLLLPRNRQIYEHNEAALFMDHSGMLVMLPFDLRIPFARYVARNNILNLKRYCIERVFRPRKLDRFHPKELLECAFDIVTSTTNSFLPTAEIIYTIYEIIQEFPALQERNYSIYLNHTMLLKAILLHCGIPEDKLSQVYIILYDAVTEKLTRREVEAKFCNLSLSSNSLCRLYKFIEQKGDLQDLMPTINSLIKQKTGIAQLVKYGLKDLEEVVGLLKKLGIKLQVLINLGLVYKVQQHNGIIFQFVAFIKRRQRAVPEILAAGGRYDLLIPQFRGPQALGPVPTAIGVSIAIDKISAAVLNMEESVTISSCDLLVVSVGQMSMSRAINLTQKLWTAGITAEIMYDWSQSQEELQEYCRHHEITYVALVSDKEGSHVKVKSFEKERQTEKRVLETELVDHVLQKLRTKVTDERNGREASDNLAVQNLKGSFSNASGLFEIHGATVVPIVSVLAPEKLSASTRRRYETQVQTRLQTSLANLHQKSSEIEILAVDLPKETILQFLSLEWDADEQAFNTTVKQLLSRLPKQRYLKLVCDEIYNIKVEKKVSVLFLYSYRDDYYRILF
Experiment: GCN2 Cellular Inhibition Assay (AlphaScreen SureFire P-eIF2α Ser51, borrelidin-treated U2OS cells)
Assay type: cell-based
Details: 10 μM borrelidin, 1 h, phosphorylated eIF2α Ser51, read-out: GCN2 Biomarker (IC50)
pIC50: −log10 of the molar value.
value_kind: pIC50

Requested field: pIC50. Item: "O=S1(=O)CC2(CC(N3CCN(c4ccnc(-c5cnc6ccc(C(F)(F)F)cn56)n4)C[C@@H]3c3cn[nH]c3)C2)C1" 5.30 to 6.30

* * *

Biological target: intracellular GCN2 (phosphorylation of the GCN2 substrate eIF2α) (Homo sapiens (Human))
Experiment: GCN2 Cellular Inhibition Assay (AlphaScreen SureFire P-eIF2α Ser51, borrelidin-treated U2OS cells)
Type: cell-based
Settings: 10 μM borrelidin, 1 h, phosphorylated eIF2α Ser51, read-out: GCN2 Biomarker (IC50)
pIC50: −log10 of the molar value.
value_kind: pIC50

Reference set, count: 2
Requested field: pIC50. Item: C[C@@H]1C[C@H](N=S(C)(C)=O)CN(c2ccnc(-c3cnc4cc(F)c(Cl)cn34)n2)C1 [I-191] > 6.30

Now consider C[C@H]1[C@@H](CNS(C)(=O)=O)N(C2CC2)CCN1c1nccc(-c2cnc3ccc(C(F)(F)F)cn23)n1 [I-541] and answer again. 5.30 to 6.30

Others:
Requested field: pIC50. Item: C[C@H]1CN(c2ccnc(-c3cnc4ccc(Cl)cn34)n2)C[C@H](c2cn[nH]c2F)O1 (stereo in doubt) [I-175] > 6.30

Now consider FC(F)(F)c1ccc2ncc(-c3nc(N4CCOC(c5cn[nH]c5)C4)ns3)n2c1 (stereo not shown) [I-108] and answer again. > 6.30

Now consider CS(=O)(=O)NC1CC(C(F)(F)F)CN(c2nccc(-c3cnc4ccc(C(F)F)cn34)n2)C1 (stereo not shown) [I-525] and answer again. 5.30 to 6.30

Now consider CS(=O)(=O)NC[C@@H]1CN(c2nsc(-c3cnc4ccc(C(F)(F)F)cn34)n2)CCO1 [I-109] and answer again. 5.30 to 6.30

Now consider C[C@@H]1[C@H](CNS(C)(=O)=O)N(C2CC2)CCN1c1nccc(-c2cnc3ccc(C(F)(F)F)cn23)n1 [I-543] and answer again. > 6.30

* * *

Molecular target: intracellular GCN2 (phosphorylation of the GCN2 substrate eIF2α) (Homo sapiens (Human))
Assay: GCN2 Cellular Inhibition Assay (AlphaScreen SureFire P-eIF2α Ser51, borrelidin-treated U2OS cells)
Type: cell-based
Details: 10 μM borrelidin, 1 h, phosphorylated eIF2α Ser51, read-out: GCN2 Biomarker (IC50)
pIC50: −log10 of the molar value.
pIC50 reference

Requested field: pIC50. Item: O=C(c1cn[nH]n1)N1CCN(c2ccnc(-c3cnc4ccc(C(F)(F)F)cn34)n2)CC1c1cn[nH]c1 (stereo not drawn) 5.30 to 6.30

# evaluate next
Requested field: pIC50. Item: C[C@H]1CN(c2ccnc(-c3cnc4ccc(C(F)(F)F)cn34)n2)C[C@@H](CNS(C)(=O)=O)C1(F)F (stereo in doubt) 5.30 to 6.30

* * *

Target: intracellular GCN2 (phosphorylation of the GCN2 substrate eIF2α) (Homo sapiens (Human))
Assay: GCN2 Cellular Inhibition Assay (AlphaScreen SureFire P-eIF2α Ser51, borrelidin-treated U2OS cells)
Assay type: cell-based
Details: 10 μM borrelidin, 1 h, phosphorylated eIF2α Ser51, read-out: GCN2 Biomarker (IC50)
pIC50: −log10 of the molar value.
value_kind: pIC50

Requested field: pIC50. Item: CS(=O)(=O)NC[C@@H]1CN(c2nc(-c3cnc4ccc(C(F)(F)F)cn34)ns2)CCO1 [I-106] < 5.30

Now consider CC1C(c2cn[nH]c2)N(C2COC2)CCN1c1ccnc(-c2cnc3ccc(C(F)(F)F)cn23)n1 (stereo not drawn) [I-322] and answer again. > 6.30

Others:
Requested field: pIC50. Item: C[C@@H]1CN(c2nccc(-c3cnc4ccc(C(F)(F)F)cn34)n2)C[C@H](c2cn[nH]c2)O1 [I-127] > 6.30

* * *

Record set of pIC50 for target or system GCN2 kinase (Homo sapiens (Human), UniProt Q9P2K8).
pIC50: −log10 of the molar value.

Reference set, count: 10
Requested field: pIC50. Item: "Cc1oncc1[C@H]1CN(c2ccnc(-c3cnc4ccc(C(F)(F)F)cn34)n2)C[C@H](C)O1" 6.00 to 7.00

Now consider CC1C(CNS(C)(=O)=O)N(C2COC2)CCN1c1ccnc(-c2cnc3ccc(C(F)F)cn23)n1 (stereo not shown) and answer again. 7.00 to 8.00

Now consider CC1C(C(N)=O)NCCN1c1ccnc(-c2cnc3ccc(C(F)(F)F)cn23)n1 (stereo not shown) and answer again. > 8.00

Now consider "Cc1oncc1[C@@H]1CN(c2ccnc(-c3cnc4ccc(C(F)(F)F)cn34)n2)C[C@H](C)O1" and answer again. 7.00 to 8.00

Now consider OCC1CC(N2CCN(c3ccnc(-c4cnc5ccc(C(F)(F)F)cn45)n3)CC2c2cn[nH]c2)C1 (stereo not shown) and answer again. > 8.00

Now consider "NC(=O)[C@H]1CN(c2ccnc(-c3cnc4ccc(Cl)cn34)n2)CCN1C1CC1" and answer again. 7.00 to 8.00

Now consider "C[C@@H]1C[C@@H](N)CN(c2ccnc(-c3cnc4ccc(Cl)cn34)n2)C1" and answer again. 6.00 to 7.00

Now consider CC(C)(O)C(=O)N1CCN(c2ccnc(-c3cnc4ccc(C(F)(F)F)cn34)n2)CC1c1cn[nH]c1 (stereo not shown) and answer again. 6.00 to 7.00

Now consider "FC(F)(F)c1ccc2ncc(-c3nccc(N4CCN(C[C@@H]5CC56CCOCC6)[C@H](c5cn[nH]c5)C4)n3)n2c1" and answer again. 7.00 to 8.00

Now consider "FC(F)(F)c1ccc2ncc(-c3ccnc(N4CCN(C[C@H]5CCCOC5)[C@@H](c5cn[nH]c5)C4)n3)n2c1" and answer again. > 8.00

Others:
Requested field: pIC50. Item: COC(=O)C1CC12CCCN(c1ccnc(-c3cnc4ccc(Cl)cn34)n1)C2 (stereo not shown) 6.00 to 7.00

Now consider "NC(=O)[C@H]1CCCN(c2ccnc(-c3cnc4ccc(C(F)(F)F)cn34)n2)C1" and answer again. > 8.00

Now consider "C[C@@H]1CN(c2nccc(-c3cnc4ccc(C(F)(F)F)cn34)n2)C[C@H](c2cn[nH]c2)O1" and answer again. > 8.00

Now consider Cc1n[nH]cc1C1CC(O)CN(c2ccnc(-c3cnc4ccc(Cl)cn34)n2)C1 (stereo not shown) and answer again. > 8.00

* * *

IC50 reference
Target: intracellular GCN2 (phosphorylation of the GCN2 substrate eIF2α) (Homo sapiens (Human), UniProt Q9P2K8)
Test: GCN2 Cellular Inhibition Assay (AlphaScreen SureFire P-eIF2α Ser51, borrelidin-treated U2OS cells)
Format: cell-based
Details: 10 μM borrelidin, 1 h, phosphorylated eIF2α Ser51, read-out: GCN2 Biomarker (IC50)

Requested field: IC50. Item: "C[C@@H]1CN(c2nccc(-c3cnc4cc(F)c(Cl)cn34)n2)C[C@H](c2cn[nH]c2)O1" < 500 nM

Others:
Requested field: IC50. Item: O=C(c1cnoc1)N1CCN(c2ccnc(-c3cnc4ccc(C(F)(F)F)cn34)n2)CC1c1cn[nH]c1 (stereo not shown) 500 to 5000 nM

Now consider FC(F)c1ccc2ncc(-c3nsc(N4CCOC(c5cn[nH]c5)C4)n3)n2c1 (stereo not shown) and answer again. > 5000 nM

Now consider CS(=O)(=O)c1ccc2ncc(-c3nccc(N4CCCC(c5cn[nH]c5)C4)n3)n2c1 (stereo not shown) and answer again. 500 to 5000 nM

Now consider "COCCn1cc([C@H]2C[C@@H](C)CN(c3nccc(-c4cnc5ccc(C(F)(F)F)cn45)n3)C2)cn1" and answer again. < 500 nM

Now consider FC(F)(F)c1ccc2ncc(-c3nccc(N4CCN(CC5CC5)C(c5cn[nH]c5)C4)n3)n2c1 (stereo not shown) and answer again. < 500 nM

* * *

IC50 reference
Biological target: intracellular GCN2 (phosphorylation of the GCN2 substrate eIF2α) (Homo sapiens (Human), UniProt Q9P2K8)
Test: GCN2 Cellular Inhibition Assay (AlphaScreen SureFire P-eIF2α Ser51, borrelidin-treated U2OS cells)
Type: cell-based
Conditions: 10 μM borrelidin, 1 h, phosphorylated eIF2α Ser51, read-out: GCN2 Biomarker (IC50)

Reference set, count: 5
Requested field: IC50. Item: Cc1n[nH]cc1C1CC(O)CN(c2ccnc(-c3cnc4ccc(Cl)cn34)n2)C1 (stereo not shown) < 500 nM

Now consider "NC(=O)[C@H]1CN(c2ccnc(-c3cnc4ccc(Cl)cn34)n2)CCN1C1CC1" and answer again. 500 to 5000 nM

Now consider "FC(F)(F)c1ccc2ncc(-c3nccc(N4CCN(C[C@H]5CC56CCOCC6)[C@H](c5cn[nH]c5)C4)n3)n2c1" and answer again. < 500 nM

Now consider COCC1(CN2CCN(c3ccnc(-c4cnc5ccc(C(F)(F)F)cn45)n3)[C@H](C)[C@@H]2c2cn[nH]c2)CCC1 (stereo in doubt) and answer again. < 500 nM

Now consider Cn1nccc1C(=O)N1CCN(c2ccnc(-c3cnc4ccc(C(F)(F)F)cn34)n2)CC1c1cn[nH]c1 (stereo not shown) and answer again. 500 to 5000 nM

Others:
Requested field: IC50. Item: "C[C@@H]1[C@H](c2cn[nH]c2)N(C2COC2)CCN1c1ccnc(-c2cnc3ccc(C(F)(F)F)cn23)n1" < 500 nM

Now consider O=C1NCC2CN(c3ccnc(-c4cnc5ccc(C(F)(F)F)cn45)n3)CCN12 (stereo not shown) [I-43] and answer again. 500 to 5000 nM

Now consider "C[C@@H]1[C@@H](c2cn[nH]c2)N(C2COC2)CCN1c1ccnc(-c2cnc3ccc(C(F)(F)F)cn23)n1" and answer again. 500 to 5000 nM

Now consider "C[C@H]1C[C@@H](c2cn[nH]c2)CN(c2nccc(-c3cnc4ccc(Cl)cn34)n2)C1" and answer again. < 500 nM

Now consider "N#C[C@@H]1CN(c2ccnc(-c3cnc4ccc(C(F)(F)F)cn34)n2)CCO1" and answer again. 500 to 5000 nM
